assay: chemical genetic growth profiling, strain panel (AID 1159580);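 note: tested at 20 µM; growth read once vehicle control cultures reached saturation at 30 °C; 1 = growth at the plate median or of vehicle wells; lower values mean less growth of the strain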; conditions: S. cerevisiae deletion strains, growth OD, locus YLL026W, hits give low values
Out of some 5,500 compounds screened, about 2,000 (36%) were called active. Another 18% or so got no clear call; they are omitted. This is one part of the list.
The following compounds are shown together with reported normalized growth values.
Respond numerically, and do not add a unit to the figure.

Solved entries:
COc1ccc(C2CNC(=O)C2)cc1OC1CCCC1 (stereo unspecified) ... 1.02
O=C(O[C@@H]1Cc2c(O)cc(O)cc2O[C@@H]1c1ccc(O)c(O)c1)c1cc(O)c(O)c(O)c1 ... 1.03
COc1cc([C@@H]2c3cc4c(cc3C(OC3O[C@@H]5COC(C)O[C@H]5[C@H](O)[C@H]3O)C3COC(=O)[C@@H]32)OCO4)cc(OC)c1O (stereo partly specified) ... 1.04
Cc1ccc(C(=O)Nc2ccc(S(=O)(=O)O)c3cc(S(=O)(=O)O)cc(S(=O)(=O)O)c23)cc1NC(=O)c1cccc(NC(=O)Nc2cccc(C(=O)Nc3cc(C(=O)Nc4ccc(S(=O)(=O)O)c5cc(S(=O)(=O)O)cc(S(=O)(=O)O)c45)ccc3C)c2)c1 ... 1.01
CC(=O)Oc1cc(OC(C)=O)c2c(c1)O[C@H](c1ccc(OC(C)=O)c(OC(C)=O)c1)[C@@H](OC(C)=O)C2 ... 0.995

Input: Return reported normalized growth; argument: CC[C@]1(O)CC2CN(CCc3c([nH]c4ccccc34)[C@@](C(=O)OC)(c3cc4c(cc3OC)N(C)[C@H]3[C@@](O)(C(=O)OC)[C@H](OC(C)=O)[C@]5(CC)C=CCN6CC[C@]43[C@@H]65)C2)C1 (stereo partly specified)
Output: 0.979
